Target: MCL-1 (Homo sapiens, UniProt Q07820, K194A/K197A/R201A)
Sequence (Q07820 173-321 K194A/K197A/R201A, looked up): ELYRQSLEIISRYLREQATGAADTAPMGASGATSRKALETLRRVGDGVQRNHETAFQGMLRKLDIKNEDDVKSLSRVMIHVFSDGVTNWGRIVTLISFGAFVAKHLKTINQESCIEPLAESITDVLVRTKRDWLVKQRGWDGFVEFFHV
Assay: Protein-protein interaction assay MCL-1/Noxa BH3 peptide, TR-FRET (MCL-1 assay, Assay 1)
Format: binding
Conditions: MCL-1 Assay [M] (median), MBP-MCL-1 / Noxa BH3 peptide
PROPERTY: IC50 (M)
API: value field is a number in M; no unit string.

Query: Consider the compound Cc1c2c(nn1C)COCc1cccnc1Cn1c(C(=O)O)c(CCCOc3cccc4ccccc34)c3cccc-2c31 (racemic) [Example 4] and give its recorded IC50.
Reply: 5.3e-09

Query: Consider the compound Cc1cc(OCCCc2c(C(=O)O)n3c4c(c(F)ccc24)-c2c(C)nn(C)c2COCc2ccccc2C3)cc(C)c1Cl (racemic) [Example 85] and give its recorded IC50.
Reply: 1.2e-08

Query: Consider the compound Cc1c2c(nn1C)COCc1ccccc1Cn1c(C(=O)O)c(CCCOc3cccc4ccccc34)c3cccc-2c31 (single isomer, unassigned; enantiomer 2) [Example 3] and give its recorded IC50.
Reply: 2.7e-08

Query: Consider the compound CCc1c2c(nn1C)COCc1ccccc1Cn1c(C(=O)O)c(CCCOc3cccc4cc(F)ccc34)c3ccc(Cl)c-2c31 (single isomer, unassigned; enantiomer 2) [Example 56] and give its recorded IC50.
Reply: 3.2e-09

Query: Consider the compound Cc1c2c(nn1C)CN(S(=O)(=O)CCN1CCOCC1)Cc1ccccc1Cn1c(C(=O)O)c(CCCOc3cccc4ccccc34)c3cccc-2c31 (single isomer, unassigned; enantiomer 2) [Example 32] and give its recorded IC50.
Reply: 1.8e-07

Query: Consider the compound CCc1nn(C)c2c1-c1c(Cl)ccc3c(CCCOc4cccc5cc(F)ccc45)c(C(=O)O)n(c13)Cc1ccccc1COC2 (racemic) [Example 57] and give its recorded IC50.
Reply: 2.7e-09

Query: Consider the compound Cc1c2c(nn1C)COCc1cccnc1Cn1c(C(=O)O)c(CCCOc3cccc4ccccc34)c3ccc(Cl)c-2c31 (racemic) [Example 39] and give its recorded IC50.
Reply: 1.6e-09

Query: Consider the compound Cc1c2c(nn1C)CN(S(=O)(=O)c1ccc(N3CCOCC3)nc1)Cc1ccccc1Cn1c(C(=O)O)c(CCCOc3cccc4ccccc34)c3cccc-2c31 (single isomer, unassigned; enantiomer 2) [Example 19] and give its recorded IC50.
Reply: 9.4e-07

Query: Consider the compound Cc1cc(OCCCc2c(C(=O)O)n3c4c(c(F)ccc24)-c2c(nn(C)c2C)COCc2ccccc2C3)cc(C)c1Cl [Example 60] and give its recorded IC50.
Reply: 2.9e-09

Query: Consider the compound Cc1c2c(nn1C)CNCc1ccccc1Cn1c(C(=O)O)c(CCCOc3cccc4ccccc34)c3cccc-2c31 (single isomer, unassigned; enantiomer 1) [Example 12] and give its recorded IC50.
Reply: 2.9e-09

Query: Consider the compound Cc1c2c(nn1C)COCc1ccccc1Cn1c(C(=O)O)c(CCCOc3cccc4ccccc34)c3cccc-2c31 (racemic) [Example 1] and give its recorded IC50.
Reply: 1.4e-08

Query: Consider the compound Cc1c2c(nn1C)COCc1ncccc1Cn1c(C(=O)O)c(CCCOc3cccc4ccccc34)c3ccc(Cl)c-2c31 (single isomer, unassigned; enantiomer 2) [Example 44] and give its recorded IC50.
Reply: 5.2e-09

Query: Consider the compound Cc1c2c(nn1C)COCc1ccccc1Cn1c(C(=O)O)c(CCCOc3cccc4ccccc34)c3ccc(F)c-2c31 (single isomer, unassigned; enantiomer 2) [Example 69] and give its recorded IC50.
Reply: 2.1e-08

Query: Consider the compound Cc1c2c(nn1C)COCc1ncccc1Cn1c(C(=O)O)c(CCCOc3cccc4ccccc34)c3cccc-2c31 (single isomer, unassigned; enantiomer 2) [Example 9] and give its recorded IC50.
Reply: 3.2e-08

Query: Consider the compound Cc1c2c(nn1C)COCc1ccccc1Cn1c(C(=O)O)c(CCCOc3cccc4cc(F)ccc34)c3ccc(F)c-2c31 (racemic) [Example 64] and give its recorded IC50.
Reply: 1.5e-09

Query: Consider the compound CCc1c2c(nn1C)COCc1ccccc1Cn1c(C(=O)O)c(CCCOc3cccc4ccccc34)c3ccc(F)c-2c31 (single isomer, unassigned; enantiomer 1) [Example 71] and give its recorded IC50.
Reply: 1.2e-09

Query: Consider the compound CCc1nn(CCN2CCOCC2)c2c1-c1c(Cl)ccc3c(CCCOc4cccc5cc(F)ccc45)c(C(=O)O)n(c13)Cc1ccccc1COC2 (racemic) [Example 51] and give its recorded IC50.
Reply: 1.5e-09

Query: Consider the compound Cc1c2c(nn1C)CN(C)Cc1ccccc1Cn1c(C(=O)O)c(CCCOc3cccc4ccccc34)c3cccc-2c31 (racemic) [Example 14] and give its recorded IC50.
Reply: 5.2e-09

Query: Consider the compound Cc1c2c(nn1C)CN(S(=O)(=O)CCN1CCOCC1)Cc1ccccc1Cn1c(C(=O)O)c(CCCOc3cccc4ccccc34)c3cccc-2c31 (racemic) [Example 30] and give its recorded IC50.
Reply: 3.7e-08

Query: Consider the compound Cc1c2c(nn1C)CN(C(=O)NC1CCOCC1)Cc1ccccc1Cn1c(C(=O)O)c(CCCOc3cccc4ccccc34)c3cccc-2c31 (single isomer, unassigned; enantiomer 2) [Example 26] and give its recorded IC50.
Reply: 3.8e-08

Query: Consider the compound CCc1nn(CCN2CCOCC2)c2c1-c1c(Cl)ccc3c(CCCOc4cccc5cc(F)ccc45)c(C(=O)O)n(c13)Cc1ccccc1COC2 (single isomer, unassigned; enantiomer 2) [Example 53] and give its recorded IC50.
Reply: 8.3e-09

Query: Consider the compound Cc1c2c(nn1C)COCc1cccnc1Cn1c(C(=O)O)c(CCCOc3cccc4ccccc34)c3cccc-2c31 (single isomer, unassigned; enantiomer 1) [Example 5] and give its recorded IC50.
Reply: 2.9e-09

Every entry's value here was drawn from patent US20210253598A1.
